- target_desc: T1, Atto550-SERF1a (human, UniProt O75920-2 1-62)
- T1 sequence: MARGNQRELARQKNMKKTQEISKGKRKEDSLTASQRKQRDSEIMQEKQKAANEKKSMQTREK
- measurement_notes: fluorescence anisotropy
outcome_measure: Kd (µM)
Output spec: scalar in µM, unitless text.

The recorded Kd for ACUGCUAGAGAUUUUCCACAU (ssRNA) [R21(-) / 21R(-)] is 4.39

// provenance: paper doi:10.1101/713511
